test system: IGR-1; test: cells; type: functional, cell-based; conditions: Homo sapiens
Description: SANGER: Inhibition of human IGR-1 cell growth in a cell viability assay.
pIC50: −log10 of the molar value.
Hi there, I'd appreciate the recorded pIC50 for every entry that follows.

Please respond with reported pIC50 (system IGR-1) for NC1(c2ccc(-c3nc4ccn5c(=O)[nH]nc5c4cc3-c3ccccc3)cc2)CCC1 [MK-2206] .
< 5.40

Please respond with reported pIC50 (system IGR-1) for COc1ccc(-c2cc3nccn3c(Nc3ncccc3C(N)=O)n2)cc1OC .
5.18

Please respond with reported pIC50 (system IGR-1) for O=S(=O)(O)c1ccc2cc(/N=N/c3cc(S(=O)(=O)O)c4cccnc4c3O)ccc2c1 .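 Note: growth inhibition of human IGR-1 cells, read out with a cell viability assay.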
< 4.80
